Every entry's value here was drawn from patent US20230414509A1.

Test system: 786-O cells (clear cell renal cell carcinoma)
Experiment: Cytotoxicity IC50, MTS assay, 786-O cells
Assay type: cell-based
Details: Homo sapiens, 786-0, 72 hours after treatment, read-out: IC-50 values (in nM), 786-O
measured.parameter: IC50
Hey, just the number and the unit after it is fine.

Record Cc1ccc([N+](=O)[O-])cc1S(=O)(=O)N(C)/N=C/c1cnc2ccc(Br)cn12.Cl [F7, PIK75] has 786-O cells (clear cell renal cell carcinoma) IC50 equal to 283 nM

###

Tested on: Jurkat cells (T-cell lymphoma)
Test: Cytotoxicity IC50, MTS assay, Jurkat cells
Assay type: cell-based
Conditions: Homo sapiens, Jurkat cells (SR-B1 negative), 72 hours after treatment, read-out: IC-50 values (in nM), Jurkat
measured.parameter: IC50 (nM)
Only the number, expressed in nM, is required.

// IC50 value for Cc1ccc([N+](=O)[O-])cc1S(=O)(=O)N(C)/N=C/c1cnc2ccc(Br)cn12.Cl : 116

###

Test system: MDA MB 231 cells (breast adenocarcinoma)
Assay: Cytotoxicity IC50, MTS assay, MDA MB 231 cells
Type: cell-based
Settings: Homo sapiens, 72 hours after treatment, read-out: IC-50 values (in nM), MDA MB 231
Description: […]
measured.parameter: IC50 (nM)
Only the number, expressed in nM, is required.

// IC50 value for Cc1ccc([N+](=O)[O-])cc1S(=O)(=O)N(C)/N=C/c1cnc2ccc(Br)cn12.Cl : 688
